test: chemical genetic growth profiling, strain panel (AID 1159580);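 also: tested at 20 µM; growth read once vehicle control cultures reached saturation at 30 °C; 1 = growth at the plate median or of vehicle wells; lower values mean less growth of the strain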; conditions: S. cerevisiae deletion strains, growth OD, locus YPL051W, strain arl3, hits give low values
Among all 5,500 compounds or so, about 2,000 (36%) were called active. About 18% were inconclusive and are not listed. This is one part of the list.
Please use YES for normalized growth under 1 and NO for everything else, ties included.

Solved entries (count: 2):
Input line: Does the reported normalized growth of the following compound sit strictly below 1? CC(=O)Oc1c2c(c(CC=C(C)C)c3c1C(=O)C1=C[C@@H]4CC5C(C)(C)OC(C/C=C(\C)C(=O)O)(C4=O)[C@@]15O3)OC(C)(CCC=C(C)C)C=C2 (some centres undefined)
Output line: YES

Input line: Field: below-cutoff. Rule: recorded normalized growth strictly less than 1. Subject: CN1CCC[C@@H]1CCO[C@](C)(c1ccccc1)c1ccc(Cl)cc1
Output line: YES

More entries:
Input line: Identify whether the compound C=C1C(=O)[C@]23[C@H](O)[C@H]1CC[C@H]2[C@@]12CO[C@]3(O)[C@H](O)[C@@H]1C(C)(C)CC[C@@H]2O records normalized growth below 1.
Output line: NO

----------
test: chemical genetic growth profiling, strain panel (AID 1159580);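 also: tested at 20 µM; growth read once vehicle control cultures reached saturation at 30 °C; 1 = growth at the plate median or of vehicle wells; lower values mean less growth of the strain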; settings: S. cerevisiae deletion strains, growth OD, locus YNL298W, strain CLA4 (second series), hits give low values
In all, about 5,500 compounds went through this assay and about 2,000 (36%) were called active. Not shown: some 18% with an inconclusive outcome. Some of the results follow.
# note: exactly 1 is not below, so it is n; use y for normalized growth strictly under it

Past entries and their recorded results:
Input line: I'd appreciate it if you could check whether Clc1ccc(Oc2ccnc3cc(Cl)ccc23)cc1 has normalized growth smaller than 1.
Output line: y

Input line: Is normalized growth strictly under 1 for the entry FC(F)(F)Oc1ccccc1-c1nnc(-c2ccc(Cl)cc2)o1 ?
Output line: y

Input line: Is 1 strictly greater than the compound's reported normalized growth? compound: O=C(Nc1cc(C(F)(F)F)cc(C(F)(F)F)c1)C(c1ccccc1)C1CCCC1 (stereo unspecified)
Output line: n

Input line: Lab note: normalized growth threshold 1. Does this compound come in strictly under it? CCOC(=O)CNc1ccc(Cl)c(Cl)c1
Output line: y

Input line: Bench note: check whether Cc1c(C)c(C)c(CSc2nc3ccccc3[nH]2)c(C)c1C shows normalized growth below 1
Output line: n

Continuing:
Input line: normalized growth strictly < 1 for this compound? O=C(Oc1ccc(Cl)cc1Cl)c1c(Cl)cccc1Cl
Output line: y

----------
assay: chemical genetic growth profiling, strain panel (AID 1159580);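 also: tested at 20 µM; growth read once vehicle control cultures reached saturation at 30 °C; 1 = growth at the plate median or of vehicle wells; lower values mean less growth of the strain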; settings: S. cerevisiae deletion strains, growth OD, locus YJL154C, strain vps35, hits give low values
Among all 5,500 compounds or so, about 2,000 (36%) were called active. Inconclusive results (about 18%) are left out. This is one part of the list.
Each record here notes measured normalized growth.
Would you mind answering with just the numeric figure?

Input line: Given the entry Clc1ccccc1CN1CCc2sccc2C1 , report its measured normalized growth.
Output line: 1.01

Input line: Endpoint output: normalized growth of COP(=S)(OC)Oc1ccc(Sc2ccc(OP(=S)(OC)OC)cc2)cc1 . Value?
Output line: 1.01

Consider the record given below.
Input line: Requested field: normalized growth. Item: COC(=O)[C@H](c1ccccc1Cl)N1CCc2sccc2C1
Output line: 0.97

----------
assay: chemical genetic growth profiling, strain panel (AID 1159580);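 also: tested at 20 µM; growth read once vehicle control cultures reached saturation at 30 °C; 1 = growth at the plate median or of vehicle wells; lower values mean less growth of the strain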; details: S. cerevisiae deletion strains, growth OD, locus YCR088W, strain abp1
Hit rate of the full screen: of about 5,500 compounds, about 2,000 (36%) were called active. Not shown: some 18% with an inconclusive outcome. Rule as the data show it: active = normalized growth mostly below about 0.91 (no sharp cut-off); inconclusive = no clear call, values can overlap the other calls; inactive = mostly above about 0.92. This is one part of the list.
Please answer using one outcome listed in true (1) = active, false (0) = inactive

Record excerpt, results attached:
Input line: Name the outcome recorded for CN1CCC[C@@H]1CCO[C@](C)(c1ccccc1)c1ccc(Cl)cc1 in the assay.
Output line: false (0)

Input line: Hey, what did the test say about CC(=O)N[C@@H](CCC(=O)O)C(=O)O ?
Output line: false (0)

Input line: What is the recorded call for this molecule in the test? Cc1cccc(C)c1NC(=O)C1CCCCN1C (stereo not drawn)
Output line: false (0)

Input line: State the result this test recorded for Cc1nnc(NS(=O)(=O)c2ccc(N)cc2)s1 .
Output line: false (0)

Input line: Called result for Clc1ccc(COC(Cn2ccnc2)c2ccc(Cl)cc2Cl)cc1 (stereo not drawn)
Output line: true (1)

Input line: Which result was noted for this molecule in the test: CC1[C@H](C)OC(=O)CC(O)CC(O)CC(O)CCC(O)C(O)C[C@]2(O)CC(O)C(C(=O)O)C(CC(OC3O[C@H](C)[C@@H](O)[C@H](N)[C@@H]3O)/C=C/C=C/C=C/C=C/CC/C=C/C=C/[C@H](C)[C@H]1O)O2 (stereo partly drawn)
Output line: true (1)

Continue with the next molecule.
Input line: # fetch the recorded call for O=NN(CCCl)C(=O)NCCCl here
Output line: false (0)
